Biological target: IL16_3, Q14005
Sequence (Q14005 1107-1207): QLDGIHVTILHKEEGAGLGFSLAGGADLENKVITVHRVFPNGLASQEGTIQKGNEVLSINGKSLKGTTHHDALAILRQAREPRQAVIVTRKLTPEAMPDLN
Experiment: holdup assay
Parameters: key: below the threshold = too weak to quantify, mostly under pKd 3.1 to 4
Conditions: plain residues with an end cap or a label only (N-terminal biotin on a linker: ado-ado)
Measurement type: pKd

>>> result("PGKKPEDSRV [SLCO2B1, O94956]")
"below the threshold"
>>> result("IKLETKKTKL [SLC15A2, Q16348]")
"below the threshold"
>>> result("MLPANYVEAI [NEB, P20929]")
"below the threshold"
>>> result("IQISELETNV [SLC1A7, O00341]")
"below the threshold"

Task item: # pKd lookup, item KKTPVSRSHL [SLC22A3, O75751]
Reply: below the threshold

Task item: # pKd lookup, item NTALVESEDL [PALLS, Q8WX93;Q8WX93-1]
Reply: below the threshold

Task item: # pKd lookup, item QRYPGNQTTC [CCL24, O00175]
Reply: below the threshold

Task item: # pKd lookup, item GQNMTVSVVI [PRLHR, P49683]
Reply: below the threshold

Task item: # pKd lookup, item PLPPEEESWV [GAS2L2, Q8NHY3]
Reply: below the threshold

Task item: # pKd lookup, item GVHSNDHSVV [LPAR1, Q92633]
Reply: below the threshold

Task item: # pKd lookup, item PAALPESTHM [SLC9A3, P48764]
Reply: below the threshold

Task item: # pKd lookup, item SRPHTNETSL [MCC, P23508]
Reply: below the threshold

Task item: # pKd lookup, item GDSSRKEYFI [GYPC, P04921]
Reply: below the threshold

Task item: # pKd lookup, item GSQSQVETEA [FKBP4, Q02790]
Reply: below the threshold

Task item: # pKd lookup, item HDDYFYHDEL [RCN2, Q14257]
Reply: below the threshold

Task item: # pKd lookup, item HLSTRQGTCV [ATRNL1, Q5VV63]
Reply: below the threshold
